measurementTarget: T1, IFN-αF (human, UniProt P01568 24-189)
T1 chain: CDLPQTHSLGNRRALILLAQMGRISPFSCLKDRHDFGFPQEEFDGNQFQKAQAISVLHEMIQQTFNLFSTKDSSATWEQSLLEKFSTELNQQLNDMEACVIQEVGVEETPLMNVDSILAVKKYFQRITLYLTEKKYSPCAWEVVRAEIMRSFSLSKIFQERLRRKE
experimentSummary: cell-based or functional assay
measurementType: IC50, ISRE assay

- binder: "IFWM3322 (antibody, IgG1, V domains shown) VH: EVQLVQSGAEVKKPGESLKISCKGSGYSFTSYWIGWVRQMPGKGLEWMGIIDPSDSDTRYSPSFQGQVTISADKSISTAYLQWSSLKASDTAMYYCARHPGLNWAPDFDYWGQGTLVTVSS VL: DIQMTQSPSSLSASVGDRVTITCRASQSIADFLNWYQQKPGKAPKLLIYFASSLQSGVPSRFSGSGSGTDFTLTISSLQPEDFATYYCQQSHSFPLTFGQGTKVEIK"
  IC50, ISRE assay: "0.117 nM"

Now take the following binder into account.
Task: Bench note: what IC50, ISRE assay did IFWM3399 (antibody, IgG1, V domains shown, mAb; IgG1/kappa said of the parent and of selected mAbs; also called IFWB3134) VH: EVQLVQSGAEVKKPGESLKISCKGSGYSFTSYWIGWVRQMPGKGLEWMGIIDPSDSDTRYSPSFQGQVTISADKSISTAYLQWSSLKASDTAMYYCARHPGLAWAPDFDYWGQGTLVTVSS VL: DIQMTQSPSSLSASVGDRVTITCRASQSIDGALNWYQQKPGKAPKLLIYFASSLQSGVPSRFSGSGSGTDFTLTISSLQPEDFATYYCQQAYDFPLTFGQGTKVEIK show?
Result: 0.029 nM
